tested on: human SMAD7 mRNA; assay: Antisense inhibition of human SMAD7 mRNA expression in Hep3B cells by 3-10-3 cEt gapmers, 10,000 nM, electroporation (Example 2); assay type: cell-based; conditions: Hep3B cells, electroporation with 10,000 nM antisense oligonucleotide, approximately 24 hours, primer probe set RTS5062, relative to untreated control cells
Strand notation (5' to 3'): a small letter for the sugar, then the base; units joined by * are phosphorothioate-linked, units joined directly phosphodiester-linked; [ ] holds rarer units or linkages, { } end groups; capitals alone tell only the bases. k = constrained ethyl (cEt); [5mC] = 5-methylcytosine; d = 2'-deoxy (DNA)

Substance | Measured On | % inhibition of SMAD7 mRNA expression / %
798709 (antisense kT*kG*k[5mC]*dG*d[5mC]*dT*d[5mC]*dG*dG*d[5mC]*dT*dG*dT*k[5mC]*k[5mC]*kG) [compound 798709] | human SMAD7 mRNA | 2
799047 (antisense kT*kT*kG*dA*dT*dG*dA*dG*dG*dG*dA*dG*dA*kG*kG*kA) [compound 799047] | human SMAD7 mRNA | 63
799024 (k[5mC]*kT*kT*dG*dG*dG*dA*d[5mC]*dT*dG*d[5mC]*dA*dA*kA*k[5mC]*k[5mC]; antisense) [compound 799024] | human SMAD7 mRNA | 0
799384 (antisense kG*kG*k[5mC]*dA*d[5mC]*dA*dA*dA*dA*dA*d[5mC]*d[5mC]*dA*kA*kG*kG) [compound 799384] | human SMAD7 mRNA | 40
798685 (antisense kG*kA*kG*dG*d[5mC]*dG*dA*dG*dG*dA*dG*dA*dA*kA*kA*kG) [compound 798685] | human SMAD7 mRNA | 58
799326 (kA*k[5mC]*kA*d[5mC]*dT*d[5mC]*dT*d[5mC]*d[5mC]*d[5mC]*dA*dG*dG*kA*kG*kG; antisense) [compound 799326] | human SMAD7 mRNA | 31

====

test system: human SMAD7 mRNA; test: Antisense inhibition of human SMAD7 mRNA expression in Hep3B cells by 3-10-3 cEt gapmers, 10,000 nM, electroporation (Example 2); assay type: cell-based; details: SMAD7 mRNA, Hep3B cells, 10,000 nM antisense oligonucleotide, electroporation, approximately 24 hours, primer probe set RTS5062, relative to untreated control cells
Strand notation (5' to 3'): a small letter for the sugar, then the base; units joined by * are phosphorothioate-linked, units joined directly phosphodiester-linked; [ ] holds rarer units or linkages, { } end groups; capitals alone tell only the bases. k = constrained ethyl (cEt); [5mC] = 5-methylcytosine; d = 2'-deoxy (DNA)
# % Inhibition >= 30% gives Satisfied, anything below gives Not satisfied

Substance | Qualitative Label
829735 (antisense k[5mC]*k[5mC]*kT*d[5mC]*d[5mC]*dG*d[5mC]*dA*d[5mC]*dA*d[5mC]*d[5mC]*dA*kT*kG*kA) [compound 829735] | Satisfied
772567 (antisense kG*kA*k[5mC]*dT*dT*d[5mC]*d[5mC]*dG*dA*dG*dG*dA*dA*kT*kG*k[5mC]) [compound 772567] | Satisfied
790508 (k[5mC]*kA*k[5mC]*d[5mC]*dA*d[5mC]*dG*d[5mC]*dA*d[5mC]*d[5mC]*dA*dG*kT*kG*kT; antisense) [compound 790508] | Not satisfied
790666 (kT*kA*kA*dT*dT*dT*dA*dT*dG*dA*d[5mC]*dA*dA*k[5mC]*kG*k[5mC]; antisense) [compound 790666] | Satisfied
829781 (antisense k[5mC]*k[5mC]*kG*dG*d[5mC]*d[5mC]*dA*d[5mC]*d[5mC]*dT*dG*dA*dA*k[5mC]*kA*k[5mC]) [compound 829781] | Satisfied
829758 (antisense k[5mC]*kA*k[5mC]*d[5mC]*dG*dG*d[5mC]*d[5mC]*d[5mC]*d[5mC]*dA*dT*dG*k[5mC]*kG*k[5mC]) [compound 829758] | Not satisfied
829780 (antisense k[5mC]*kG*kG*d[5mC]*d[5mC]*dA*d[5mC]*d[5mC]*dT*dG*dA*dA*d[5mC]*kA*k[5mC]*kT) [compound 829780] | Satisfied
790697 (kA*kT*kT*d[5mC]*dA*dG*dG*dG*dT*dG*dT*d[5mC]*dA*kG*k[5mC]*k[5mC]; antisense) [compound 790697] | Satisfied
790871 (kT*kG*kT*dT*dA*dG*dG*dA*d[5mC]*d[5mC]*dT*dG*dG*kG*kA*kA; antisense) [compound 790871] | Satisfied
829719 (antisense kG*k[5mC]*k[5mC]*dA*dG*dT*d[5mC]*dT*d[5mC]*d[5mC]*d[5mC]*dG*dG*kA*kG*kG) [compound 829719] | Not satisfied
799184 (antisense kA*kA*k[5mC]*d[5mC]*dT*dT*dT*dG*dT*dA*dG*dT*dT*kA*kG*kA) [compound 799184] | Satisfied

====

test system: human SMAD7 mRNA; assay: Antisense inhibition of human SMAD7 mRNA expression in Hep3B cells by 5-10-5 MOE gapmers, single concentration, electroporation, RT-PCR (Example 1, Study 1 and 2); assay type: cell-based; conditions: electroporation with 15,000 nM antisense oligonucleotide (Study 2), 5-10-5 MOE gapmers targeting SEQ ID NO: 1 and 2
Strand notation (5' to 3'): a small letter for the sugar, then the base; units joined by * are phosphorothioate-linked, units joined directly phosphodiester-linked; [ ] holds rarer units or linkages, { } end groups; capitals alone tell only the bases. e = 2'-O-(2-methoxyethyl) (MOE); [5mC] = 5-methylcytosine; d = 2'-deoxy (DNA)
// false (0) strictly below 30% in % Inhibition of SMAD7 mRNA; true (1) otherwise

Substance | Qualitative Label
771600 (antisense eT*eG*eG*e[5mC]*e[5mC]*dA*dA*dA*dA*dA*dA*dG*dA*dA*dA*eG*eA*e[5mC]*eG*e[5mC]) [compound 771600] | false (0)
771744 (antisense eG*eG*e[5mC]*eT*eA*dT*dT*d[5mC]*d[5mC]*d[5mC]*dA*dA*dG*dA*dG*eT*e[5mC]*e[5mC]*eA*eG) [compound 771744] | true (1)
771936 (antisense eT*eG*eT*eT*eT*d[5mC]*dT*dG*dT*dG*dT*dG*d[5mC]*dA*d[5mC]*eA*eT*eA*e[5mC]*eG) [compound 771936] | true (1)
771433 (eT*e[5mC]*e[5mC]*eT*eT*d[5mC]*dA*dG*dT*dT*dT*d[5mC]*dT*dT*dG*eA*eG*e[5mC]*eA*e[5mC]; antisense) [compound 771433] | false (0)

====

tested on: human SMAD7 mRNA; test: Antisense inhibition of human SMAD7 mRNA expression in Hep3B cells by 3-10-3 cEt gapmers, 10,000 nM, electroporation (Example 2); type: cell-based; conditions: Hep3B cells, electroporation, 10,000 nM antisense oligonucleotide, approximately 24 hours, RTS5062, relative to untreated control cells
Strand notation (5' to 3'): a small letter for the sugar, then the base; units joined by * are phosphorothioate-linked, units joined directly phosphodiester-linked; [ ] holds rarer units or linkages, { } end groups; capitals alone tell only the bases. k = constrained ethyl (cEt); [5mC] = 5-methylcytosine; d = 2'-deoxy (DNA)

Substance | Unit Tag | % inhibition of SMAD7 mRNA expression
799813 (antisense kA*kT*kG*d[5mC]*dA*dG*dA*d[5mC]*dA*dG*d[5mC]*dT*dA*kA*kT*k[5mC]) [compound 799813] | % | 16
799321 (antisense kA*kT*k[5mC]*dT*dG*dG*dA*d[5mC]*dA*dG*dT*d[5mC]*dT*kG*k[5mC]*kT) [compound 799321] | % | 93
799596 (kA*k[5mC]*kT*d[5mC]*dT*dG*dA*dA*d[5mC]*dG*dG*dA*dA*kA*kG*kA; antisense) [compound 799596] | % | 49

====

assay: Hematology assays after subcutaneous administration in CD-1 mice (Example 6); format: in vivo; details: 50 mg/kg subcutaneous twice weekly for 7 weeks
Strand notation (5' to 3'): a small letter for the sugar, then the base; units joined by * are phosphorothioate-linked, units joined directly phosphodiester-linked; [ ] holds rarer units or linkages, { } end groups; capitals alone tell only the bases. k = constrained ethyl (cEt); [5mC] = 5-methylcytosine; d = 2'-deoxy (DNA)
Below, each of the substances is paired with its reported Hemoglobin value.
Measurement Kind: Hemoglobin (g/dL)

Substance | Measurement Kind | Assay Result
830027 (antisense kA*kA*k[5mC]*d[5mC]*dA*dT*dT*dT*dA*dT*d[5mC]*dT*dG*kG*kT*kG) [compound 830027] | Hemoglobin | 14.7
829994 (GGAGGCAGGGCCGCGA; 3-10-3 cEt gapmer, further chemistry not given here) [compound 829994] | Hemoglobin | 12.0
798781 (CGTAAGATTCACAGCA; 3-10-3 cEt gapmer, further chemistry not given here) [compound 798781] | Hemoglobin | 13.8
799144 (antisense kT*kT*kG*dG*dG*dT*dT*dA*dT*dG*dA*d[5mC]*dG*kG*kA*k[5mC]) [compound 799144] | Hemoglobin | 14.3
830025 (antisense TTTGTAAATCGAAAGC; 3-10-3 cEt gapmer, further chemistry not given here) [compound 830025] | Hemoglobin | 12.5
790615 (CCAATGAGAATGCTTC; 3-10-3 cEt gapmer, further chemistry not given here) [compound 790615] | Hemoglobin | 15.2
830121 (AGAATCAAGCCCTGGC; 3-10-3 cEt gapmer, further chemistry not given here) [compound 830121] | Hemoglobin | 13.6
